These entries and their values trace back to paper PMC3461104.

# Assay Target: human TLR8 (Homo sapiens, UniProt Q9NR97)
# Sequence (Q9NR97 27-1041): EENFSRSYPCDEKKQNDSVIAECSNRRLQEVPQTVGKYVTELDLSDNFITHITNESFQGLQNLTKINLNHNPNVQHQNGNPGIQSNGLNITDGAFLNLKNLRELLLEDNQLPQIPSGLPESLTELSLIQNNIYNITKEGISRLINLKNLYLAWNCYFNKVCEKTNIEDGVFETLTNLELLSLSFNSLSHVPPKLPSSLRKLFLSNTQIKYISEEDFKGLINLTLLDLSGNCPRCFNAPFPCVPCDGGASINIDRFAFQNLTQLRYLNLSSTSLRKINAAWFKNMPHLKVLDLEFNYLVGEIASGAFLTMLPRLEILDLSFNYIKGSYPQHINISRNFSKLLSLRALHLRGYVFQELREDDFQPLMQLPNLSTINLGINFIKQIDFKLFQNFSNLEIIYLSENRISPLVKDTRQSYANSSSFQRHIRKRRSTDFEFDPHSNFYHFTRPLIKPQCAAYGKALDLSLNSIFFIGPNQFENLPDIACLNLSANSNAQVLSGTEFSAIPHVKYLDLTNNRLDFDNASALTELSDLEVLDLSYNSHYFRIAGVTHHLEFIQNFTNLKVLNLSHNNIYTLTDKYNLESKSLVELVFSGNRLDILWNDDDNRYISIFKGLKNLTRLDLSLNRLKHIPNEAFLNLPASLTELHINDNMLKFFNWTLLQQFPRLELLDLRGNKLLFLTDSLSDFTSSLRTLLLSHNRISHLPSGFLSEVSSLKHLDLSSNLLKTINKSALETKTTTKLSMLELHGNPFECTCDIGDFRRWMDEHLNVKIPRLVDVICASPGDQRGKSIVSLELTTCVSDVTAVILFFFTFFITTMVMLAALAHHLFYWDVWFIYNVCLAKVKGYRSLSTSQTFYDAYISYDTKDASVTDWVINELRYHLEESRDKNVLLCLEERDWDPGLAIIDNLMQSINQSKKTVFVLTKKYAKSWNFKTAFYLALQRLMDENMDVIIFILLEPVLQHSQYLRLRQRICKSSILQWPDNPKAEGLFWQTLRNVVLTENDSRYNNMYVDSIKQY
# Test Protocol: Human TLR8-specific HEK-Blue reporter gene assay
# Assay type: cell-based
# Measurement Setup: human TLR8-transfected HEK293 cells, NF-κB reporter
Measurement Type: dose-response profile (area-under the-curve) remark

Check out these entries, answers already filled in.
>  <Compound>
CCCCCNc1oc2c(C)ncc(CO)c2c1Nc1cccc(F)c1 [Compound 38b]

>  <Observed Result>
Low AUC

$$$$
>  <Compound>
Cc1ncc(CO)c2c(Nc3ccccc3)c(NCc3ccccc3)oc12

>  <Observed Result>
Very low AUC

$$$$
>  <Compound>
CCCCCNc1oc2c(C)ncc(CO)c2c1Nc1ccccc1 [Compound 38a]

>  <Observed Result>
Low AUC

$$$$
>  <Compound>
Cc1ncc(CO)c2c(Nc3ccccn3)c(N[C@@H](C)c3ccccc3)oc12 [Compound 37m]

>  <Observed Result>
Very low AUC

$$$$
>  <Compound>
CCCC(C)Nc1oc2c(C)ncc(CO)c2c1Nc1ccccn1 (stereo not shown) [Compound 37d]

>  <Observed Result>
Low AUC

$$$$
>  <Compound>
Cc1ncc(CO)c2c(Nc3ccccn3)c(NCCC(=O)OC(C)(C)C)oc12 [Compound 37i]

>  <Observed Result>
Low AUC

$$$$

--- query ---
**Query** Give its dose-response profile (area-under the-curve) remark value. Item: CCCCCNc1oc2c(C)ncc(CO)c2c1Nc1cccc([N+](=O)[O-])c1 [Compound 38c]
**Result** Low AUC
